target: full length human recombinant glucocorticoid receptor (Homo sapiens); construct: It contains some partially purified full length human recombinant glucocorticoid receptor; assay: Glucocorticoid Receptor Binding Assay (Glucocorticoid Receptor Competitor Assay far red kit, fluorescence polarization); settings: competition with fluorescent GR ligand Fluormone GS Far Red, 3 hours at 22° C., pH 7.4; Ki calculated from IC50 by Cheng-Prusoff
Sequence (P04150 whole entry): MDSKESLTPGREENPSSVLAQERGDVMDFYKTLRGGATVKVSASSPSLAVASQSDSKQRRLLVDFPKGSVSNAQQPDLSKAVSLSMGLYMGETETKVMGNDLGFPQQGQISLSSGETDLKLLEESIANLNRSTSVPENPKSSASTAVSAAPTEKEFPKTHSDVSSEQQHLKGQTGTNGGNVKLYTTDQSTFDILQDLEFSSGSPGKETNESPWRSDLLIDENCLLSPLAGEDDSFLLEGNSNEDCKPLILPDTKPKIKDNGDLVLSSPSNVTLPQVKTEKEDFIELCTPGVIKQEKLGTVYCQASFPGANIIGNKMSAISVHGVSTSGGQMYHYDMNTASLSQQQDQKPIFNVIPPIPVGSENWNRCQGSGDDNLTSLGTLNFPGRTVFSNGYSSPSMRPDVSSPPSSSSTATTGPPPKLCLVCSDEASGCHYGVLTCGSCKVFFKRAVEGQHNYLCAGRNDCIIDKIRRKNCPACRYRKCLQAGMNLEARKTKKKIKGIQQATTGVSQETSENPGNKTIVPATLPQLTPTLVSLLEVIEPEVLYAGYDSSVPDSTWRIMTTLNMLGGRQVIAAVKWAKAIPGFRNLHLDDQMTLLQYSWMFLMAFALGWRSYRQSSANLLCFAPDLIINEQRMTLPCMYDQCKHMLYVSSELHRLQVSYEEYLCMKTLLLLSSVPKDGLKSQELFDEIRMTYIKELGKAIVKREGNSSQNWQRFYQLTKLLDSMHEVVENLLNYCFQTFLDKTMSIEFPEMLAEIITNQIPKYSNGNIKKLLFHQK
pKi: −log10 of the molar value.
Reported endpoint: pKi

Please review the following examples before continuing.
COC(=O)c1ccc(Oc2ccc([C@H](C)[C@](O)(c3cc(C)c(C#N)c(C)c3)C(F)(F)F)c(Cl)c2)cc1F (relative stereo) | 8.74
C[C@@H](c1ccc(-c2ccc(F)c(C(=O)O)c2)cc1Cl)[C@](O)(c1ccc2c(c1)N(C)S(=O)(=O)N2C)C(F)(F)F (relative stereo) | 7.97
C[C@H](c1ccc(Oc2c(C(=O)O)ccnc2Cl)cc1Cl)[C@@](O)(c1ccc2c(c1)n(C)c(=O)n2C)C(F)(F)F (stereo in doubt) | 8.21
C[C@H](c1ccc(-c2ccc(C(=O)O)cc2Cl)cc1Cl)[C@@](O)(c1ccc2c(c1)n(C)c(=O)n2C)C(F)(F)F (stereo in doubt) | 8.85

a. C[C@H](c1ccc(Oc2ncc(Cl)cc2C(=O)O)cc1Cl)[C@@](O)(c1ccc2c(c1)n(C)c(=O)n2C)C(F)(F)F (stereo in doubt)
b. CCN1C(=O)COc2ccc([C@](O)([C@H](C)c3ccc(-c4ccc(C(=O)O)c(F)c4)cc3Cl)C(F)(F)F)cc21 (relative stereo)
Lookup: Identify the entry with the smaller pKi: a or b . Answer format: the label of the selected item.
Found: b
(b: 6.89, a: 8.80)

###

biological target: full length human recombinant glucocorticoid receptor (Homo sapiens); construct: It contains some partially purified full length human recombinant glucocorticoid receptor; test: Glucocorticoid Receptor Binding Assay (Glucocorticoid Receptor Competitor Assay far red kit, fluorescence polarization); details: competition with fluorescent GR ligand Fluormone GS Far Red, 3 hours at 22° C., pH 7.4; Ki calculated from IC50 by Cheng-Prusoff
Reported endpoint: Ki (nM)

Please review the following examples before continuing.
C[C@@H](c1ccc(Oc2ccc(C(=O)O)c(Cl)c2)cc1Cl)[C@](O)(c1cc2c(cc1F)OCC(=O)N2C)C(F)(F)F (stereo in doubt) | 2.7
C[C@@H](c1cc(Oc2cccc(C(=O)O)c2)ccc1Cl)[C@](O)(c1ccc2c(c1)N(C)C(=O)CO2)C(F)(F)F (stereo in doubt) | 4.8
C[C@@H](c1ccc(-c2ccc(C(=O)O)c(Cl)c2)cc1Cl)[C@](O)(c1ccc2c(c1)N(C)C(=O)CO2)C(F)(F)F (relative stereo) | 3.1

1. COC(=O)c1cnc(Oc2ccc([C@@H](C)[C@@](O)(c3ccc4c(c3)N(C)C(=O)CO4)C(F)(F)F)c(Cl)c2)nc1C(F)(F)F (racemic)
2. C[C@H](c1ccc(-c2ccc(F)c(C(=O)O)c2)cc1Cl)[C@@](O)(c1ccc2c(c1)n(C)c(=O)n2C)C(F)(F)F (stereo in doubt)
3. C[C@H](c1ccc(-c2ccc(C(=O)O)nc2)cc1Cl)[C@@](O)(c1ccc2c(c1)n(C)c(=O)n2C)C(F)(F)F (relative stereo)
4. COC(=O)c1cnc(Oc2ccc([C@@H](C)[C@@](O)(c3ccc4oc(=O)n(C)c4c3)C(F)(F)F)c(Cl)c2)cc1Cl (relative stereo)
5. C[C@@H](c1ccc(-c2ccc(C(=O)O)c(F)c2)cc1Cl)[C@](O)(c1cc2c(cc1F)OCC(=O)N2C)C(F)(F)F (stereo in doubt)
Lookup: Sort the 5 compounds by Ki; largest first, smallest last. Form entry: labels listed in requested order.
Found: 5, 3, 1, 4, 2

A. CCOC(=O)c1ccc(COc2ccc(Cl)c([C@H](C)[C@](O)(c3ccc4c(c3)N(C)C(=O)CO4)C(F)(F)F)c2)cc1 (stereo in doubt)
B. COC(=O)c1ccc(Oc2ccc([C@@H](C)[C@@](O)(c3ccc4oc(=O)n(C)c4c3)C(F)(F)F)c(Cl)c2)cc1F (relative stereo)
Lookup: Task for the reader: decide whether A or B has the larger Ki. Answer format: the label of the selected item.
Found: A

I. COC(=O)c1ccc(Oc2ccc(Cl)c([C@H](C)[C@](O)(c3ccc4c(c3)N(C)C(=O)CO4)C(F)(F)F)c2)cc1Cl (relative stereo)
II. C[C@H](c1ccc(Oc2cccc(C(=O)O)c2)cc1Cl)[C@@](O)(c1ccc2c(c1)n(C)c(=O)n2C)C(F)(F)F (relative stereo)
III. CCN1C(=O)COc2ccc([C@](O)([C@H](C)c3ccc(Oc4cc(C(F)(F)F)c(C(=O)O)cn4)cc3Cl)C(F)(F)F)cc21 (relative stereo)
IV. C[C@@H](c1ccc(Oc2ccc(C(=O)O)c(Cl)c2)cc1Cl)[C@](O)(c1ccc2c(c1)n(C)c(=O)n2C)C(F)(F)F (stereo in doubt)
V. C[C@@H](c1cc(Oc2ccc(Cl)c(C(=O)O)c2)ccc1Cl)[C@](O)(c1ccc2c(c1)N(C)C(=O)CO2)C(F)(F)F (relative stereo)
Lookup: Sort low-to-high on Ki, please. Form entry: labels listed in requested order.
Found: IV, II, V, I, III
(IV: 0.4 nM, II: 1.2 nM, V: 3.7 nM, I: 8.9 nM, III: 59.8 nM)

P. C[C@H](c1ccc(Oc2cc(Cl)c(C(=O)O)cn2)cc1Cl)[C@@](O)(c1ccc2c(c1)n(C)c(=O)n2C)C(F)(F)F (stereo in doubt)
Q. C[C@H](c1ccc(Oc2ccc(C(=O)O)cc2)cc1Cl)[C@@](O)(c1ccc2c(c1)n(C)c(=O)n2C)C(F)(F)F (relative stereo)
R. C[C@H](c1ccc(-c2ccc(F)c(C(=O)O)c2)cc1Cl)[C@@](O)(c1ccc2oc(=O)n(C)c2c1)C(F)(F)F (relative stereo)
Lookup: Sort low-to-high on Ki, please. Form entry: labels listed in requested order.
Found: R, P, Q
(R: 0.5 nM, P: 1.1 nM, Q: 1.6 nM)

a. C[C@@H](c1ccc(-c2ccc(Cl)c(C(=O)O)c2)cc1Cl)[C@](O)(c1ccc2c(c1)N(C)C(=O)CO2)C(F)(F)F (stereo in doubt)
b. COC(=O)c1ccc(Oc2ccc([C@H](C)[C@](O)(c3ccc4c(c3)N(C)C(=O)CO4)C(F)(F)F)c(Cl)c2)cc1Cl (single isomer, unassigned)
Lookup: Identify the entry with the smaller Ki: a or b . Answer format: the label of the selected item.
Found: b
(b: 1 nM, a: 1.5 nM)

A. C[C@H](c1ccc(-c2ccc(C(=O)O)c(F)c2)cc1Cl)[C@@](O)(c1ccc2[nH]c(=O)[nH]c2c1)C(F)(F)F (relative stereo)
B. COC(=O)c1cncc(-c2ccc([C@@H](C)[C@@](O)(c3ccc4oc(=O)n(C)c4c3)C(F)(F)F)c(Cl)c2)c1 (relative stereo)
Lookup: Identify the entry with the smaller Ki: A or B . Answer format: the label of the selected item.
Found: B
(B: 1.4 nM, A: 354 nM)
